All figures here come from patent US20250296934A1.

SYSTEM NAME: 5-HT2A (Homo sapiens, UniProt P28223)
Sequence (P28223 whole entry): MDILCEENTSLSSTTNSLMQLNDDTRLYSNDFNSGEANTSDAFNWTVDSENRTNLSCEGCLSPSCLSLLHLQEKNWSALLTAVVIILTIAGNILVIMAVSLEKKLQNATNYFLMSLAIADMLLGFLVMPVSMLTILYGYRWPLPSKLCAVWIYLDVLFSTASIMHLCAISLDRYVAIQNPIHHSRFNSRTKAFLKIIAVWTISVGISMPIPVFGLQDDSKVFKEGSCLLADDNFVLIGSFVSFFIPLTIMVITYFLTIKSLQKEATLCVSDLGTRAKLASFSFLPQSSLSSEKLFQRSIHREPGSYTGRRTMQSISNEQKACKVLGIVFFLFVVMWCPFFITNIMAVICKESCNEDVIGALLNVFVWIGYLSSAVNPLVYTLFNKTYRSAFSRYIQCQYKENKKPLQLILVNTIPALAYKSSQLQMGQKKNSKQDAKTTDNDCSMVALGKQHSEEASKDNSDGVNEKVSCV
ASSAY INFO: 5-HT receptor activity (Table 3), 5-HT2A
Format: cell-based
REPORTED METRIC: pEC50
Quick note: pEC50 values are minus log10 of concentrations in mol/L.

The compound identified as "Cc1ccc(O)c2c3c([nH]c12)CCNCC3" registered its pEC50 at 9.30

---

Collected hepatocyte CLint values appear next to each entry.
ASSAY INFO: In vitro hepatocyte clearance, human
Type: in vitro ADME
CONDITION PARAMETERS: Human hepatocytes

Cc1ccc(O)c2c3c([nH]c12)CCNCC3 [Cpd #1 (Pharm-136)] | < 2.71 µL/min/1e6 cells

The compound identified as Oc1cccc2[nH]c3c(c12)CCNCC3 [Cpd #67 (A93)] registered its hepatocyte CLint at < 2.71 µL/min/1e6 cells

The compound identified as Cc1ccc(O)c2c3c([nH]c12)CCN(C)CC3 [Cpd #14 (W5)] registered its hepatocyte CLint at 1.26 µL/min/1e6 cells

---

ASSAY INFO: Plasma PK in dog
Type: in vivo
CONDITION PARAMETERS: IV, 2 mg/kg
REPORTED METRIC: half-life (h)
I only need the number, in h, no unit after it.

The compound identified as "Cc1ccc(O)c2c3c([nH]c12)CCNCC3" registered its half-life at 2.84

---

SYSTEM NAME: 5-HT2C (Homo sapiens, UniProt P28335)
Sequence (P28335 33-458): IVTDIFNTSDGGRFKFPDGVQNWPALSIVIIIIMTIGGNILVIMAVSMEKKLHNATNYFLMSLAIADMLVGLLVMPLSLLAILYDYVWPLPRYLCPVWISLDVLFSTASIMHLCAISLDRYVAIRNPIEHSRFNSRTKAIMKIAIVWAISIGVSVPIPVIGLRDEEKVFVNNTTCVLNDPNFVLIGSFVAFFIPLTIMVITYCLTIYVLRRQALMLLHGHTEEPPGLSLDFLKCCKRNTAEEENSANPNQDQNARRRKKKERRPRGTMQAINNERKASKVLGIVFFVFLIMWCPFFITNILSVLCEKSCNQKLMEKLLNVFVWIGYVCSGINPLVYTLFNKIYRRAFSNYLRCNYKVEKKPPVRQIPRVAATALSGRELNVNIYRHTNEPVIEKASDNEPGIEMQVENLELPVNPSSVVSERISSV
ASSAY INFO: cell-based
Format: cell-based
Parameters: expressed in transfected cells; host or cells: HEK293T
CONDITION PARAMETERS: Gq dissociation BRET, HEK293T
pEC50: −log10 of the molar value.
Hi, to clarify the labels: rule met covers pEC50 from 9 upward, rule not met covers anything below 9.

Solved cases below.
Cc1ccc(O)c2[nH]c3c(c12)CCNCC3 [Pharm-159] | rule met
Cc1cc(F)c(O)c2c3c([nH]c12)CCNCC3 [Cpd #27 (A92)] | rule not met
Cn1c2c(c3c(O)cccc31)CCNCC2 [Cpd #65 (A95)] | rule not met
Oc1cccc2[nH]c3c(c12)CCNCC3 [Cpd #67 (A93)] | rule not met
Cc1ccc(O)c2c3c([nH]c12)CCNCC3 [Cpd #1 (Pharm-136)] | rule met

Task item: Identify whether the reported pEC50 of the following compound is 9 or greater: CN1CCc2[nH]c3cccc(O)c3c2CC1 [Cpd #66 (A94)]
Reply: rule not met

Task item: Identify whether the reported pEC50 of the following compound is 9 or greater: CN1CCc2c(n(C)c3cccc(O)c23)CC1 [Cpd #64 (A96)]
Reply: rule not met

Task item: Identify whether the reported pEC50 of the following compound is 9 or greater: Cc1ccc(O)c2c3c([nH]c12)CCN(Cc1ccccc1O)CC3 [Cpd #18 (A90)]
Reply: rule not met

---

SYSTEM NAME: 5-HT2C (Homo sapiens, UniProt P28335)
ASSAY INFO: cell-based
Format: cell-based
Parameters: expressed in transfected cells; host or cells: HEK293T
CONDITION PARAMETERS: normalized to % 5-HT stimulation
REPORTED METRIC: 5-HT2C BRET Eff

CN1CCc2c(n(C)c3cccc(O)c23)CC1 | 79%
Cc1cc(F)c(O)c2c3c([nH]c12)CCNCC3 | 101%
Cc1ccc(O)c2[nH]c3c(c12)CCNCC3 | 99%
Oc1cccc2[nH]c3c(c12)CCNCC3 | 94%
Cc1ccc(O)c2c3c([nH]c12)CCNCC3 | 101%
Cc1cccc2c(CCN(C)C)c[nH]c12 [7,N,N-TMT, reference compound] | 79%

The compound identified as "Cn1c2c(c3c(O)cccc31)CCNCC2" registered its 5-HT2C BRET Eff at 93%

The compound identified as "Cc1ccc(O)c2c3c([nH]c12)CCN(Cc1ccccc1O)CC3" registered its 5-HT2C BRET Eff at 93%

The compound identified as Cc1ccc(O)c2c3c([nH]c12)C(C)CNCC3 (centres unmarked) registered its 5-HT2C BRET Eff at 99%

The compound identified as "Cc1ccc(O)c2c3c([nH]c12)CCN(C)CC3" registered its 5-HT2C BRET Eff at 87%

The compound identified as "CN1CCc2[nH]c3cccc(O)c3c2CC1" registered its 5-HT2C BRET Eff at 89%
